The entries below come with measured Emax values attached.
- target.under.test: cloned human GLP-1 receptor (Homo sapiens, UniProt P43220)
- Construct: expressed in transfected cells; host or cells: CHO or HEK-293 cells
- Sequence (P43220 24-463): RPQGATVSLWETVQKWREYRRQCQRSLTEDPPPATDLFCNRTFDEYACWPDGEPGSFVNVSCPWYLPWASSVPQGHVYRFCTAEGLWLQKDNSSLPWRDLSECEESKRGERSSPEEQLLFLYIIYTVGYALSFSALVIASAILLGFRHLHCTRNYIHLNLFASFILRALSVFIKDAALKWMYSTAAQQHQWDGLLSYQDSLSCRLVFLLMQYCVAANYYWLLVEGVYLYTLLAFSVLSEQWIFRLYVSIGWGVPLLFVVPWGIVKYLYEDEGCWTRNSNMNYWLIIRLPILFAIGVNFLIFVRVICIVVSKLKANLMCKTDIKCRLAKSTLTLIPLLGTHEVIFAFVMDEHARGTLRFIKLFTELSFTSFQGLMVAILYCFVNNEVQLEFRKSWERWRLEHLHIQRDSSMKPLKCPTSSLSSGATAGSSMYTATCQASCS
- procedure.text: Functional cell-based assay: cAMP functional assay
- setup.conditions: 0.5 h; percentage relative to maximal GLP-1-induced cAMP accumulation; na = not active in the assay; read-out: % activation
- Description: Following overnight incubation of cells, media was removed, and compounds (at concentrations ranging from 0.0001 to 100 μM) were added to monolayer cells in Iscove's modified dulbecco's medium (IMDM), 100 μM RO 20-1724 PDE inhibitor, 0.1% BSA, 2% DMSO in a final volume of 100 μL, and incubated for 30 min at 37° C. 95% O2, 5% CO2 in a humidified incubator. cAMP was quantitated using a homogenous time-resolved fluorescence detection system (cAMP dynamic, CIS bio International).
Dear colleague, please return just the value in %, with no unit written.

[[record]]
compound = "N#Cc1ccc(-c2ccc(C[C@H](NC(=O)[C@@H]3Cc4cc5c(cc4CN3C(=O)c3cccc(C(F)(F)F)c3)OC(c3ccc(OCc4ccc(Cl)c(Cl)c4)cc3)C(=O)N5)C(=O)O)cc2)cc1 (stereo partly drawn)"
endpoint_value = 53

[[record]]
compound = "CCc1ccccc1CN1Cc2cc3c(cc2C[C@H]1C(=O)N[C@@H](Cc1ccc(-c2ccc(C#N)cc2)cc1)C(=O)O)N(C)C(=O)C(c1ccc(OCc2ccc(Cl)c(Cl)c2)cc1)O3 (stereo partly drawn)"
endpoint_value = 49


Looking for the measured Emax of N#Cc1ccc(-c2ccc(C[C@H](NC(=O)[C@@H]3Cc4cc5c(cc4CN3Cc3ccccc3F)OC(c3ccc(OCc4ccc(Cl)c(Cl)c4)cc3)C(=O)N5)C(=O)O)cc2)cc1 (stereo partly drawn) , can you help?
42
